Test: ATG_TGFb_CIS: Attagene CIS-FACTORIAL HepG2 Assay for human Transforming Growth Factor (TGF) (AID 2282967)
Conditions: HepG2 Attagene CIS TGFb reporter, mRNA transcription; actives raise or lower the signal
Activity calls are given as the source filed them. How the source made its calls: active means hit-call score of the fitted dose curve at least 0.9, where 1 is the maximum; inactive means score below 0.9.
Please reply with one of these outcomes: active, inactive

## Input Can you look up the reported call for CCC[CH2][Sn]([Cl])([Cl])[Cl] for me?
## Output inactive

## Input Then what about the molecule CN(C)P(=O)(N(C)C)N(C)C ?
## Output inactive

## Input Then what about the molecule CNC(=O)O/N=C/C(C)(C)S(C)=O (stereo not drawn) ?
## Output inactive

## Input Then what about the molecule COc1cccc(C=O)c1 ?
## Output active

## Input Then what about the molecule Cl/C=C/Cl ?
## Output inactive

## Input Then what about the molecule Fc1ccc(C2(Cn3cncn3)OC2c2ccccc2Cl)cc1 (stereo not drawn) ?
## Output inactive

## Input Then what about the molecule CC(=O)C(Cl)C(=O)N(C)C (stereo not drawn) ?
## Output inactive

## Input Then what about the molecule CCCCCCCCC(=O)NCc1ccc(O)c(OC)c1 ?
## Output inactive

## Input Then what about the molecule CCOP(=S)(OCC)Oc1nc(Cl)c(Cl)cc1Cl ?
## Output inactive

## Input Then what about the molecule COP(=S)(OC)Oc1ccc(Sc2ccc(OP(=S)(OC)OC)cc2)cc1 ?
## Output active

## Input Then what about the molecule CCOP(OCC)OCC ?
## Output inactive

## Input Then what about the molecule O=P(O)(O)CN(CP(=O)(O)O)CP(=O)(O)O ?
## Output inactive

## Input Then what about the molecule CC(=[OH+])/C=C(/C)[O-].CC(=[OH+])/C=C(/C)[O-].CC(=[OH+])/C=C(/C)[O-].[Al] ?
## Output inactive
